Known pooled HDACs percent inhibition of a selection of molecules
# System: histone deacetylase enzyme in nuclear extracts from H446 cells (pooled HDACs)
# ASSAY_PROCEDURE: Histone deacetylase inhibition, H446 nuclear extracts (pooled HDACs)
# Assay type: biochemical, human
# EXPERIMENTAL_PARAMETERS: percent inhibition at 20 μM (footnote)
# Description: HDAC inhibitors were screened against histone deacetylase enzyme in nuclear extracts prepared from the human small cell lung cancer cell line H446 (ATTC HTB-171) and against a cloned recombinant human HDAC-1 enzyme expressed and purified from a Baculovirus insect cell expression system. […]
MEASURED_METRIC: pooled HDACs percent inhibition (%)

# MOLECULE, U, READING
records = [
    ("Nc1ccccc1NC(=O)CCCCCCC(=O)c1cccc2ccccc12 [Compound 53f]", "%", 3),
    ("COc1ccc(NC(=O)CCCCCCC(=O)c2ccc(-c3ccccc3)cc2)c(N)c1", "%", 27),
    ("Nc1ccccc1NC(=O)CCCCCN1C(=O)c2cccc3cc(O)cc(c23)C1=O [Compound 251a]", "%", 0),
    ("O=C(CCCCCCC(=O)c1ccc2ccccc2c1)Nc1ccccc1O", "%", 0),
    ("O=C(CCCCCCC(=O)c1ccccc1)Nc1cccnc1", "%", 0),
    ("O=C(NCCCCCCC(=O)c1ccccc1)Nc1ccccc1O", "%", 0),
    ("COc1ccc(-c2ccc(C(=O)CCCCCCC(=O)NO)cc2)cc1", "%", 83),
    ("O=C(CCCCCC/C(=N\\O)c1ccc(-c2ccccc2)cc1)NO [(E)-51h]", "%", 99),
    ("Nc1ccccc1NC(=O)CCCCCCC(=O)c1cc2ccccc2s1", "%", 18),
    ("COc1ccc(C(=O)CCCCCCC(=O)Nc2ccccc2N)cc1 [Compound 53b]", "%", 0),
    ("O=C(CCCCCC/C(=N/O)c1ccc(-c2ccccc2)cc1)NO [(Z)-51h]", "%", 75),
    ("Nc1ccccc1NC(=O)CCCCCCC(=O)c1ccc(-c2ccsc2)cc1", "%", 0),
    ("O=C(CCCCCCC(=O)c1ccc(-c2ccccc2)cc1)Nc1ccccc1O", "%", 0),
    ("Nc1ccccc1NC(=O)CCCCCCC(=O)c1ccc(-c2ccccc2)cc1", "%", 11),
    ("Nc1ccccc1NC(=O)NCCCCCCC(=O)c1ccccc1", "%", 0),
    ("O=C(NCCCCCC(=O)c1ccc(-c2ccccc2)cc1)Nc1ccccc1O", "%", 0),
    ("Nc1ccccc1NC(=O)CCCCCCC(=O)c1ccc(-c2cccnc2)cc1", "%", 0),
    ("Nc1ccccc1NC(=O)CCCCCn1nnc2ccccc2c1=O [Compound 239b]", "%", 14),
    ("Nc1ccccc1NC(=O)CCCCCN1C(=O)c2ccccc2C1=O [Compound 243a]", "%", 6),
]

* * *

# Tested on: histone deacetylase enzyme in nuclear extracts from H446 cells (pooled HDACs)
# ASSAY_PROCEDURE: Histone deacetylase inhibition, H446 nuclear extracts (pooled HDACs)
# Format: biochemical, human
# EXPERIMENTAL_PARAMETERS: H446 nuclear extract, [3H]-acetylated histone substrate
pIC50: −log10 of the molar value.
Known pIC50 of a selection of molecules
MEASURED_METRIC: pIC50

# MOLECULE, LIMIT_QUALIFIER, READING
records = [
    ("O=C(CS)CCCCCC(=O)c1cc2ccccc2s1 [Compound 161]", "=", 7.03),
    ("O=C(CCCCCC/C(=N\\O)c1cc2ccccc2s1)NO [Compound 99]", "=", 7.46),
    ("O=C(CCCCCCC(=O)c1ccc(N2CCOCC2)cc1)NO [Compound 138i]", "=", 7.00),
    ("O=C(CCCCCCC(=O)c1ccccc1)CSC(=O)c1ccccc1 [Compound 159f, 1-Benzoylthio-2,9-dioxo-9-phenyl-nonane]", "=", 6.46),
    ("O=C(CCCCCCC(=O)c1ccc(Nc2ccccn2)cc1)NO [Compound 138d]", "=", 7.70),
    ("COC(C/C=C/C=C/C(=O)Nc1ccccc1N)c1ccccc1 (stereo not drawn) [Compound 19]", "<", 4.00),
    ("Nc1ccccc1NC(=O)CCCCCCC(=NO)c1ccc2ccccc2c1 (mixture of isomers) [Compound 106]", "<", 4.70),
    ("COc1ccc(C(OC)C(C)(C)CCCCC(=O)NO)cc1 (stereo not drawn) [Compound 28]", "=", 5.40),
    ("COC(C/C=C/C=C/C(=O)Nc1ccccc1N)c1ccc(N(C)C)cc1 (stereo not drawn) [Compound 20]", "<", 4.70),
    ("Cn1c(C(=O)CCCCCCC(=O)NO)cc2ccccc21 [Compound 103]", "=", 7.00),
    ("Nc1ccccc1NC(=O)CCCCCCC(=O)c1ccc2ccccc2c1 [Compound 63]", "<", 4.70),
    ("COc1ccc(C(C/C=C/C=C/C(=O)NO)OC)cc1 (stereo not drawn) [Compound 6]", "=", 5.52),
    ("COc1ccc(/C(CCCCCCC(=O)NO)=N/O)cc1 [Compound 96]", "=", 7.00),
    ("O=C(CCCCCCC(=O)c1ccc(N2CCN(c3ccccc3)CC2)cc1)NO [Compound 138g]", "=", 7.29),
    ("O=C(CCCCCCC(=O)c1ccc(Br)cc1)NO [Compound 52d, N-hydroxy-7-(4-bromobenzoyl)heptanamide]", "=", 7.30),
    ("CC(=O)SCC(=O)CCCCCCC(=O)c1cc2ccccc2n1C [Compound 165]", "=", 7.40),
    ("O=C(CCCCCCC(=O)c1ccc(Nc2nccs2)cc1)NO [Compound 138e]", "=", 7.70),
    ("CC(=O)SCC(=O)CCCCCCC(=O)c1ccccc1 [Compound 159a, 1-Acetylthio-2,9-dioxo-9-phenyl-nonane]", "=", 7.30),
    ("O=C(CCCCCNS(=O)(=O)c1ccccc1)NO [Compound 47]", "=", 5.35),
    ("COC(C/C=C/C=C/C(=O)NO)c1ccccc1 (stereo not drawn) [Compound 12]", "=", 5.03),
    ("O=C(CCCCCCC(=O)c1ccco1)NO [Compound 52i, N-hydroxy-7-(2-furanoyl)-heptanamide]", "=", 5.52),
    ("O=C(CCCCCCC(=O)c1ccc(N2CCCCC2)cc1)NO [Compound 138h]", "=", 7.32),
    ("COc1ccc(C(C/C=C/C=C/C(=O)Nc2ccccc2N)OC)cc1 (stereo not drawn) [Compound 18]", "<", 4.00),
    ("CC(/C=C/C(=O)Nc1ccccc1N)=C\\C(C)C(=O)c1ccc(N(C)C)cc1 (stereo not drawn) [Compound 35]", "<", 4.00),
    ("CC(CCC(=O)NO)CC(C)C(=O)c1ccc(N(C)C)cc1 (stereo not drawn) [Compound 62]", "=", 5.96),
    ("O=C(CCCCCCC(=NO)c1ccccc1)NO [Compound 51a, N-Hydroxy-8-oximino-8-phenyloctanamide]", "=", 6.46),
    ("O=C(CCCCCCC(=O)c1cccc2ccccc12)NO [Compound 52f, N-hydroxy-7-(1-naphthoyl)heptanamide]", "=", 6.26),
    ("O=C(CCCCCC(=O)c1cc2ccccc2[nH]1)NO [Compound 112]", "=", 6.60),
    ("CC(=O)SCC(=O)CCCCCCC(=O)c1cc2ccccc2[nH]1 [Compound 167]", "=", 6.52),
    ("O=C(CCCCCCC(=O)c1ccccc1)CSc1ccccc1 [Compound 159d, 1-Phenylthio-2,9-dioxo-9-phenyl-nonane]", "=", 4.30),
    ("Cn1c(C(=O)CCCCCCC(=O)CS)cc2ccccc21 [Compound 166]", "=", 7.30),
    ("CC(CCCCC(=O)c1ccc2ccccc2c1)CC(=O)NO (stereo not drawn) [Compound 199]", "=", 7.10),
    ("O=C(CCCCCCC(=O)c1ccoc1)NO [Compound 52j, N-hydroxy-7-(3-furanoyl)heptanamide]", "=", 5.52),
    ("O=C(CCCCCC/C(=N\\O)c1ccc2ccccc2c1)NO [Compound 97]", "=", 7.52),
    ("O=C(CCCCCCC(=O)c1cc2ccccc2s1)NO [Compound 52m]", "=", 7.00),
    ("O=C(CCCCCCC(=NO)c1ccco1)NO [Compound 51i]", "=", 6.05),
]
